Hello, the source for this data is the Immune Epitope Database (IEDB), in case you need it.

# Target system: HLA-A*29:02
# Assay summary: IEDB peptide-MHC binding, purified MHC/competitive/radioactivity; filed as Kd, often an IC50 or EC50 that approximates it; bounds were set here for any values at or beyond the usual limits of such assays
# Measurement parameters: source organism: Mammarenavirus juninense
Readout type: pKd
To interpret pKd, take it as minus log10 of a concentration measured in moles per litre.

Entry "ELGNILSVY" ; pKd = 4.96

* * *

# Target system: HLA-B*08:01
# Assay summary: IEDB peptide-MHC binding, purified MHC/competitive/radioactivity; filed as Kd, often an IC50 or EC50 that approximates it; bounds were set here for any values at or beyond the usual limits of such assays
# Measurement parameters: source organism: Dengue virus 2 Jamaica/1409/1983
Readout type: pKd
To interpret pKd, take it as minus log10 of a concentration measured in moles per litre.

Entry "RREKRSVAL" ; pKd = 7.39
